Hey, just so you know, these numbers are from patent US5955500A.

- Tested on: canine heart
- setup.conditions: 0.2 mg/kg i.v., 5 min, mean ± SE
Listed here: items and their measured AH time.
Record the value in ms, omitting the unit from your answer.

Here is how some compounds turned out for AH time.
>  <compound>
COc1ccc(CCN(C)CCCC(C#N)(c2ccc(OC)c(OC)c2)C(C)C)cc1OC (racemic) [90/10S]

>  <unit.name>
ms

>  <AH time>
104

$$$$
>  <compound>
COc1ccc(CCN(C)CCC[C@](C#N)(c2ccc(OC)c(OC)c2)C(C)C)cc1OC [R-verapamil, reference compound]

>  <unit.name>
ms

>  <AH time>
99

$$$$
>  <compound>
COc1ccc(CCN(C)CCCC(C#N)(c2ccc(OC)c(OC)c2)C(C)C)cc1OC (racemic) [20/80S]

>  <unit.name>
ms

>  <AH time>
130

$$$$

Shift focus to the following entry.
Asked: Notebook entry, canine heart assay: AH time of COc1ccc(CCN(C)CCCC(C#N)(c2ccc(OC)c(OC)c2)C(C)C)cc1OC (racemic) [80/20S] = ?
Given back: 116

###

Reported Heart rate values are given for each entry in this list.
- System: canine heart
- setup.conditions: 0.2 mg/kg i.v., 5 min, mean ± SE
- Method: Fourteen adult mongrel dogs of either sex weighing between 19 and 25 kg were prepared for chronic electrophysiologic investigation by implanting epicardial electrodes and an indwelling aortic catheter. […] The His bundle electrode (HBE) was advanced into the base of the interatrial septum from the aortic root. […] The HBE was slowly advanced parallel to the aorta, inferiorly and slightly anteriorly until a well discernible His potential was recorded. […]
Report the figure in beats per min without appending any unit label.

Use these answered entries as a reference point.
>  <molecule>
COc1ccc(CCN(C)CCCC(C#N)(c2ccc(OC)c(OC)c2)C(C)C)cc1OC (racemic) [90/10S]

>  <Heart rate, beats per min>
118

$$$$
>  <molecule>
COc1ccc(CCN(C)CCCC(C#N)(c2ccc(OC)c(OC)c2)C(C)C)cc1OC (racemic) [20/80S]

>  <Heart rate, beats per min>
146

$$$$
>  <molecule>
COc1ccc(CCN(C)CCCC(C#N)(c2ccc(OC)c(OC)c2)C(C)C)cc1OC (racemic) [80/20S]

>  <Heart rate, beats per min>
123

$$$$

The record that follows has no Heart rate shown yet.
Asked: What does the data say about its Heart rate? Entry: COc1ccc(CCN(C)CCC[C@](C#N)(c2ccc(OC)c(OC)c2)C(C)C)cc1OC [R-verapamil, reference compound]
Given back: 95

###

- System: canine heart
- setup.conditions: 0.2 mg/kg i.v., 2 min, mean ± SE
The following compounds are shown together with reported Mean arterial pressure values.
Give the value in mmHg but do not write mmHg after it.

>  <compound>
COc1ccc(CCN(C)CCC[C@](C#N)(c2ccc(OC)c(OC)c2)C(C)C)cc1OC [R-verapamil, reference compound]

>  <property>
Mean arterial pressure

>  <recorded.result>
97

$$$$
>  <compound>
COc1ccc(CCN(C)CCCC(C#N)(c2ccc(OC)c(OC)c2)C(C)C)cc1OC (racemic) [20/80S]

>  <property>
Mean arterial pressure

>  <recorded.result>
93

$$$$

Asked: What does the data say about its Mean arterial pressure? Entry: COc1ccc(CCN(C)CCCC(C#N)(c2ccc(OC)c(OC)c2)C(C)C)cc1OC (racemic) [80/20S]
Given back: 94

Asked: Given the compound COc1ccc(CCN(C)CCCC(C#N)(c2ccc(OC)c(OC)c2)C(C)C)cc1OC (racemic) [90/10S] , what is its reported Mean arterial pressure?
Given back: 99

###

Measured AH time accompanies every entry in the list below.
- System: canine heart
- setup.conditions: 0.2 mg/kg i.v., 2 min, mean ± SE
State the answer as a number, implicitly in ms.

Sample records with AH time:
>  <compound>
COc1ccc(CCN(C)CCC[C@](C#N)(c2ccc(OC)c(OC)c2)C(C)C)cc1OC [R-verapamil, reference compound]

>  <property>
AH time

>  <recorded.result>
97

$$$$
>  <compound>
COc1ccc(CCN(C)CCCC(C#N)(c2ccc(OC)c(OC)c2)C(C)C)cc1OC (racemic) [90/10S]

>  <property>
AH time

>  <recorded.result>
99

$$$$
>  <compound>
COc1ccc(CCN(C)CCCC(C#N)(c2ccc(OC)c(OC)c2)C(C)C)cc1OC (racemic) [80/20S]

>  <property>
AH time

>  <recorded.result>
115

$$$$

Asked: Request the reported AH time associated with COc1ccc(CCN(C)CCCC(C#N)(c2ccc(OC)c(OC)c2)C(C)C)cc1OC (racemic) [20/80S]
Given back: 133

###

Measured AH time, listed per entry.
- Test system: canine heart
- setup.conditions: 0.1 mg/kg i.v., 4 min, mean ± SE
Supply the numeric figure in ms, leaving out any unit text.

>  <molecule>
COc1ccc(CCN(C)CCCC(C#N)(c2ccc(OC)c(OC)c2)C(C)C)cc1OC (racemic) [20/80S]

>  <AH time / ms>
111

$$$$

Asked: For the molecule shown here, COc1ccc(CCN(C)CCC[C@](C#N)(c2ccc(OC)c(OC)c2)C(C)C)cc1OC [R-verapamil, reference compound] , give the reported AH time.
Given back: 95

Asked: State the recorded AH time for this entry: COc1ccc(CCN(C)CCCC(C#N)(c2ccc(OC)c(OC)c2)C(C)C)cc1OC (racemic) [90/10S]
Given back: 89

Asked: Consider the molecule COc1ccc(CCN(C)CCCC(C#N)(c2ccc(OC)c(OC)c2)C(C)C)cc1OC (racemic) [80/20S] and give its measured AH time.
Given back: 96
